Each item that follows carries a reported IC50.
Molecular target: nucleotide exchange on hKRASG12C mediated by hSOS1 (Homo sapiens)
Sequence (Q07889 564-1049): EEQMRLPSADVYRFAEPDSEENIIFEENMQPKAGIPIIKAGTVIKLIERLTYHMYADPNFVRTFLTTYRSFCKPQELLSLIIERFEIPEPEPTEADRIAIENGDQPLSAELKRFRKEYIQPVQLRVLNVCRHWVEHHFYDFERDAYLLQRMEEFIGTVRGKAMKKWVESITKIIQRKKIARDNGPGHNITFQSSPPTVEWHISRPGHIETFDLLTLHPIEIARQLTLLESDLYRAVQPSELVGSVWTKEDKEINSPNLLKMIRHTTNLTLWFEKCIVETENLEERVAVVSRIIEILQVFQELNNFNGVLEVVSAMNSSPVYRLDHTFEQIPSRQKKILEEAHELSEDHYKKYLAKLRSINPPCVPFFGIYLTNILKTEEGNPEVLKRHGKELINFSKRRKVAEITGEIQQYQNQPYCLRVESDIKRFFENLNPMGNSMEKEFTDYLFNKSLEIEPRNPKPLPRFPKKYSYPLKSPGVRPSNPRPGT

Some solved entries appear below for comparison.
Cc1nc(N[C@H](C)c2cc(N)cc(C(F)(F)F)c2)c2cc3c(cc2n1)OCCN3C [Compound 10]
0.031 to 0.13 µM
COC1(C)C(=O)N(C)c2cc3c(N[C@H](C)c4cccc(C(F)(F)C(C)(C)O)c4F)nc(C)nc3cc21 (stereo partly shown) [Compound 101]
0.001 to 0.03 µM
Cc1nc(N[C@H](C)c2cccc(C(F)(F)C(C)(C)O)c2F)c2cc3c(cc(C)c(=O)n3C)cc2n1 [Compound 38]
0.001 to 0.03 µM
CCN1C(=O)C(C)(C)c2cc3c(N[C@H](C)c4cccc(C(F)(F)CO)c4F)nc(C)nc3cc21 [Compound 88]
0.001 to 0.03 µM
Cc1nc(N[C@H](C)c2cc(N)cc(C(F)(F)F)c2)c2cc3c(cc2n1)OCC(=O)N3C [Compound 1]
0.031 to 0.13 µM

(Q) Entry Cc1nc(N[C@H](C)c2cccc(C(F)(F)CO)c2F)c2cc3c(cc2n1)OC(C)C(=O)N3C (single isomer, unassigned) [Compound 30b] has what IC50?
(A) 0.001 to 0.03 µM

(Q) Same for COCCN1C(=O)C(C)(C)c2cc3nc(C)nc(N[C@H](C)c4cccc(C(F)(F)C(C)(C)O)c4F)c3cc21 [Compound 63]
(A) 0.001 to 0.03 µM

(Q) Check Cc1nc(N[C@H](C)c2cccc(C(F)(F)CO)c2F)c2cc3c(cc2n1)C(C)(C)C(=O)N3C [Compound 72] too.
(A) 0.001 to 0.03 µM

(Q) Also check Cc1nc(N[C@H](C)c2cccc(C(F)(F)C(C)(C)O)c2F)c2cc3c(cc2n1)N(C)C(=O)C3C (mixture of isomers) [Compound 95]
(A) 0.031 to 0.13 µM

(Q) Also COC1(C)C(=O)N(C)c2cc3c(N[C@H](C)c4cccc(C(F)(F)C(C)(O)CN(C)C)c4F)nc(C)nc3cc21 (single isomer, unassigned) [Compound 135] , if possible.
(A) 0.001 to 0.03 µM

(Q) Try this molecule too: CO[C@]1(C)C(=O)N(C)c2cc3nc(C)nc(N[C@H](C)c4cccc(C(F)(F)C(C)(C)O)c4F)c3cc21 (racemic) [Compound 96a]
(A) 0.031 to 0.13 µM

(Q) Also COC[C@](C)(O)C(F)(F)c1cccc([C@@H](C)Nc2nc(C)nc3cc4c(cc23)N(C)C(=O)C(C)(C)O4)c1F (racemic) [Compound 53a] , if possible.
(A) 0.001 to 0.03 µM

(Q) Also CO[C@]1(C)C(=O)N(C)c2cc3c(N[C@H](C)c4cccc(C(F)(F)[C@@](C)(O)CN(C)C)c4F)nc(C)nc3cc21 (racemic) [Compound 135b] , if possible.
(A) 0.031 to 0.13 µM

(Q) How about CO[C@]1(C)C(=O)N(C)c2cc3c(N[C@H](C)c4cccc(C(F)(F)[C@](C)(O)CN(C)C)c4F)nc(C)nc3cc21 (racemic) [Compound 135a] ?
(A) 0.001 to 0.03 µM
